Target: T1, FZD7 CRD (Homo sapiens, UniProt O75084)
T1 construct: D45-S169; GPI anchor signal (C); expressed in transfected cells; host or cells: CHO cells, lentiviral pLenti-puro
Test: Immunofluorescence of anti-FZD5 Fab binding to CHO cells overexpressing Frizzled CRD
Design: key: −: no binding; +: very weak binder; ++: weak binder; +++: good binder; ++++: very good binder
attribute measured: Immunofluorescence binding, Frizzled CRD overexpressed on CHO cells: FZD7

Fab-2929: anti-FZD5 Fab with antibody variable region Fv-2929; CDR SEQ ID NOs: 35, 36, 68, 106, 144, 162 (antibody, V domains shown) VH: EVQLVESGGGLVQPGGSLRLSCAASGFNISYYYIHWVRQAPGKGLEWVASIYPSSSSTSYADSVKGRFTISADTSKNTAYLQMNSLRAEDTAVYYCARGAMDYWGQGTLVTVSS VL: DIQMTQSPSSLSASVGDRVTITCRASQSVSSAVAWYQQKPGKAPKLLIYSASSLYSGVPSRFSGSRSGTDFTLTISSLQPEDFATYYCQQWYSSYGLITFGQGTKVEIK	+
Fab-2911: anti-FZD5 Fab with antibody variable region Fv-2911; CDR SEQ ID NOs: 35, 36, 50, 89, 126, 163 (antibody, V domains shown) VH: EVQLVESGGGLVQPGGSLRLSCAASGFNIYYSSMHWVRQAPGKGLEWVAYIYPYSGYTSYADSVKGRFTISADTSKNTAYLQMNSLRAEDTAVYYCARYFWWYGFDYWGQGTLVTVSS VL: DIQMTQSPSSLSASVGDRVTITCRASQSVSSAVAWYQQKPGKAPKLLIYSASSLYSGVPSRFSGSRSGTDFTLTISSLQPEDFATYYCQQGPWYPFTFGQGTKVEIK	+++
Fab-2914: anti-FZD5 Fab with antibody variable region Fv-2914; CDR SEQ ID NOs: 35, 36, 53, 92, 129, 162 (antibody, V domains shown) VH: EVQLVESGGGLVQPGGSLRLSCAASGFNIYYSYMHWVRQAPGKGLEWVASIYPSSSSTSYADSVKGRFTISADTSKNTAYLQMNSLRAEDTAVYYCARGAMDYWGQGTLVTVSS VL: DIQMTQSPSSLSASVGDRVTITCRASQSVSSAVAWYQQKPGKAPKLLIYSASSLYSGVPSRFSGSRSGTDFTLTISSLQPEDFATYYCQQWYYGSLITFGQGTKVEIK	++++
Fab-2936: anti-FZD5 Fab with antibody variable region Fv-2936; CDR SEQ ID NOs: 35, 36, 75, 112, 151, 179 (antibody, V domains shown) VH: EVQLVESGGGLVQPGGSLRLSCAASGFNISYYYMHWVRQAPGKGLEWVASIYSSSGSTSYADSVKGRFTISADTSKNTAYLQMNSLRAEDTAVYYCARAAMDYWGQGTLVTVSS VL: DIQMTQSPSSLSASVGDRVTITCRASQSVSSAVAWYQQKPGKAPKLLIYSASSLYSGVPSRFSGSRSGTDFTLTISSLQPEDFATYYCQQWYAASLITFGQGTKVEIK	−
